Quick reference: IC50 of the listed items.
# systemTested: Cholinesterase (Homo sapiens, UniProt P06276)
# Sequence (P06276 whole entry): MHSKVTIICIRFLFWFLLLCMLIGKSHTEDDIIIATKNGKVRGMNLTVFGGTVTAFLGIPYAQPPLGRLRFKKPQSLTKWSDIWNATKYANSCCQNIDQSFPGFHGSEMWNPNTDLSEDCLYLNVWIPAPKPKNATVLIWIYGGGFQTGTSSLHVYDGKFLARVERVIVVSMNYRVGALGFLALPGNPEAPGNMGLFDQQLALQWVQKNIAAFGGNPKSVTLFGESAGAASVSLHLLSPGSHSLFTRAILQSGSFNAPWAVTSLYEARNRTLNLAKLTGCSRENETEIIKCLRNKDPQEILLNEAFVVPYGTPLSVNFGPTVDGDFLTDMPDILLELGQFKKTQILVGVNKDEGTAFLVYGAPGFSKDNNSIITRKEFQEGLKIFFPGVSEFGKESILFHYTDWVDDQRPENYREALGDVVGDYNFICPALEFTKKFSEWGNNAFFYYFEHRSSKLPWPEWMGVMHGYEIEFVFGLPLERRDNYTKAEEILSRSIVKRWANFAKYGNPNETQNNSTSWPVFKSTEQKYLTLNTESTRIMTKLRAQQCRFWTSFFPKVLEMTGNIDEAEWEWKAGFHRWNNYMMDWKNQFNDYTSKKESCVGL
# measurementDescription: Inhibition of human serum BChE by Ellman's method

COc1ccc(C(=O)c2ccc(CN(C)Cc3ccccc3)cc2)cc1F > 100 µM
COc1ccc(C(=O)c2ccc(CN(C)Cc3cccc([N+](=O)[O-])c3)cc2)cc1OC > 100 µM

get_value(item= COc1ccc(C(=O)c2ccc(CN(C)Cc3ccccc3)cc2)cc1 , readout=IC50) returns > 100 µM
